Can you tell me Activity for the items I'm about to list?
Test: Cytotoxicity against human HTLA-230 cells at 100 uM after 24 hrs by lactate dehydrogenase release assay
Format: cell-based
Details: htla-230, 24 h
One number for each entry, in %.

COc1ccc(/C=N/OCC(=O)N2CC(C)OC(C)C2)cc1OC1CCCC1 (stereo unspecified)
0.14

Please report Activity for every entry that follows.
1. COc1ccc(/C=N/N2CC(C)OC(C)C2)cc1OC1CCCC1 (stereo unspecified)
2. COc1ccc(/C=N/OCC(O)CN2CCC(O)CC2)cc1OC1CCCC1 (stereo unspecified)
3. COc1ccc(/C=N/OCC(O)CNN2CC(C)OC(C)C2)cc1OC1CCCC1 (stereo unspecified)
4. COc1ccc(/C=N/N2CCOCC2)cc1OC1CCCC1

Outgoing:
[0.01, 1.2, 0.75, 0.04]

Incoming: What measured Activity goes with COc1ccc(/C=N/OCC(O)CNN2CCOCC2)cc1OC1CCCC1 (stereo unspecified) ?
Outgoing: 0.01

* * *

Biological target: 3',5'-cyclic-AMP phosphodiesterase 4B (Homo sapiens, UniProt Q07343)
Sequence (Q07343 whole entry): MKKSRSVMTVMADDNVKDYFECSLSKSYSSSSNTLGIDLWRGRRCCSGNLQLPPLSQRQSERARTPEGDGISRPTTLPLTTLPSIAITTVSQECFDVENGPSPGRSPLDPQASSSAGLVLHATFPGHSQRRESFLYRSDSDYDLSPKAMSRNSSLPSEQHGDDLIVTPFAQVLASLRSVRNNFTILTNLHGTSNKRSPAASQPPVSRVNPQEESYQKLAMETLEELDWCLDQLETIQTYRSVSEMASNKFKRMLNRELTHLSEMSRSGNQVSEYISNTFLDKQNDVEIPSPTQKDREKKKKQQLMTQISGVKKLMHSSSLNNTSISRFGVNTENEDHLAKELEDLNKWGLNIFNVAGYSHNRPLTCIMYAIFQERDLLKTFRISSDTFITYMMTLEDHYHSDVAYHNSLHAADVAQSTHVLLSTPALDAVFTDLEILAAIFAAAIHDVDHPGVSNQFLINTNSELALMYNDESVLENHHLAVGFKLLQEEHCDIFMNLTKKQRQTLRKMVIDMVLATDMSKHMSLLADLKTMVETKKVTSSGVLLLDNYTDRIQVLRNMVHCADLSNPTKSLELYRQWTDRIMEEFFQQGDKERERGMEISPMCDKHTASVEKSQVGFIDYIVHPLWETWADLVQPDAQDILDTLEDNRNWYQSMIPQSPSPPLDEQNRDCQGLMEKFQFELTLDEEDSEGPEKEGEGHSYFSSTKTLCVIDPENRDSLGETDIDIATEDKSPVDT
Experiment: Inhibition of PDE4B2 (unknown origin) at 10 uM
Hi there, I'd appreciate the recorded inhibition for every entry that follows.
Answers are plain numbers, in %.

Some solved entries appear below for comparison.
COc1ccc(/C=N/OCC(O)CN2CCC(O)CC2)cc1OC1CCCC1 (stereo not given)
5
COc1ccc(/C=N/OCC(O)CNN2CC(C)OC(C)C2)cc1OC1CCCC1 (stereo not given)
51
COc1ccc(/C=N/N2CCOCC2)cc1OC1CCCC1
62
COc1ccc(/C=N/N2CC(C)OC(C)C2)cc1OC1CCCC1 (stereo not given)
47

Incoming: Item: COc1ccc(/C=N/OCC(O)CNN2CCOCC2)cc1OC1CCCC1 (stereo not given) Test system: 3',5'-cyclic-AMP phosphodiesterase 4B (Homo sapiens, UniProt Q07343) Read-out: inhibition Value: ?
Outgoing: 34

* * *

Target: 3',5'-cyclic-AMP phosphodiesterase 4D (Homo sapiens, UniProt Q08499)
Sequence (Q08499 whole entry): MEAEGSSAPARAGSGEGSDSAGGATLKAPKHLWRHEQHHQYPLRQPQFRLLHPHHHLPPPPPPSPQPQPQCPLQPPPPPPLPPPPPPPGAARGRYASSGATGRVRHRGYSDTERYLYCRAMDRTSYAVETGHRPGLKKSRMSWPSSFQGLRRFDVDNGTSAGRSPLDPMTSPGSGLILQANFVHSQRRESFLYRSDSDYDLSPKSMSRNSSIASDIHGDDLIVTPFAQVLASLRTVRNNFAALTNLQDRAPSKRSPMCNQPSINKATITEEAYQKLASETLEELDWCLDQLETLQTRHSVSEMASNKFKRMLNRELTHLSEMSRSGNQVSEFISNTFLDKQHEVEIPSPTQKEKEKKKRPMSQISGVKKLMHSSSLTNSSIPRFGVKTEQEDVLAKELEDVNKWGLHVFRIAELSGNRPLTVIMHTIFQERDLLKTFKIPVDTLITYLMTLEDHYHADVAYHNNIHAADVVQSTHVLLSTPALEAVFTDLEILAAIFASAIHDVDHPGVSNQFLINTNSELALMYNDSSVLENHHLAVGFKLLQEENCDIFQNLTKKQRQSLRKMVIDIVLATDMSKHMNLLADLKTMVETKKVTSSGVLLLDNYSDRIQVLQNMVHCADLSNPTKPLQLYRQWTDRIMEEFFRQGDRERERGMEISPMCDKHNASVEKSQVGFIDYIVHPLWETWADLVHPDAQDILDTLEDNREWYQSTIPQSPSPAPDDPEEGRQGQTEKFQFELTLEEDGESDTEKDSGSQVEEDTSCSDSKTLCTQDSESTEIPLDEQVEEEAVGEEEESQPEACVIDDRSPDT
Assay: Inhibition of recombinant human PDE4D3 expressed in baculoviral system
pIC50: −log10 of the molar value.
# pIC50 >= 6 gives T, anything below gives F

Here are 2 compounds together with their reported answers.
COc1ccc(/C=N/OCC(O)CN2CCC(O)CC2)cc1OC1CCCC1 (stereo not given)
F
COc1ccc(/C=N/OCC(O)CNN2CC(C)OC(C)C2)cc1OC1CCCC1 (stereo not given)
T

Could you now consider this next compound?
Incoming: Test whether the compound COc1ccc(/C=N/N2CC(C)OC(C)C2)cc1OC1CCCC1 (stereo not given) records pIC50 of 6 or higher.
Outgoing: F

* * *

Biological target: 3',5'-cyclic-AMP phosphodiesterase 4D (Homo sapiens)
Test: Inhibition of PDE4D3 (unknown origin) at 10 uM
Please go through the items and note down their inhibition.
Numbers only, in %.

Worked examples, 5 molecules total:
COc1ccc(C(=O)NN2CCOCC2)cc1OC1CCCC1
32
COc1ccc(/C=N/N2CC(C)OC(C)C2)cc1OC1CCCC1 (configuration not stated)
75
COc1ccc(/C=N/N2CCOCC2)cc1OC1CCCC1
83
COc1ccc(/C=N/OCC(O)CN2CCC(O)CC2)cc1OC1CCCC1 (configuration not stated)
65
COc1ccc(/C=N/OCC(O)CNN2CCOCC2)cc1OC1CCCC1 (configuration not stated)
56

Dear colleague, could you send me inhibition for each of the items below? Thanks.
1. COc1ccc(C(=O)N2CC(C)OC(C)C2)cc1OC1CCCC1 (configuration not stated)
2. COc1ccc(/C=N/OCC(O)CNN2CC(C)OC(C)C2)cc1OC1CCCC1 (configuration not stated)

Outgoing:
1: 31; 2: 80

* * *

Target: UniProt Q08499
Test: Inhibition of recombinant human PDE4D3 expressed in baculoviral system at 10 uM
Measurement Name: inhibition (%)
Give bare numbers, in %.

Sample answers from the record:
COc1ccc(/C=N/OCC(O)CNN2CC(C)OC(C)C2)cc1OC1CCCC1 (stereo unspecified)
80
COc1ccc(/C=N/OCC(CN2CCC(OC(C)=O)CC2)OC(C)=O)cc1OC1CCCC1 (stereo unspecified)
12
COc1ccc(/C=C/C(=O)N2CCC(O)CC2)cc1OC1CCCC1
22
COc1ccc(/C=N/OCC(=O)N2CCC(O)CC2)cc1OC1CCCC1
30
COc1ccc(/C=N/N2CCOCC2)cc1OC1CCCC1
83

--- query ---
Incoming: inhibition for COc1ccc(C(=O)N2CCC(O)CC2)cc1OC1CCCC1 ?
Outgoing: 20

* * *

Assignment: determine reported inhibition for the given molecules.
Molecular target: 3',5'-cyclic-AMP phosphodiesterase 4D (Homo sapiens)
Assay: Inhibition of recombinant human PDE4D3 expressed in baculoviral system at 10 uM
Numbers only, in %.

Below, each entry is followed by its recorded inhibition result.
COc1ccc(C(=O)N2CC(C)OC(C)C2)cc1OC1CCCC1 (stereo not drawn)
31
COc1ccc(/C=N/OCC(O)CNN2CCOCC2)cc1OC1CCCC1 (stereo not drawn)
56

Now look at this entry.
Incoming: Given the entry COc1ccc(/C=N/N2CC(C)OC(C)C2)cc1OC1CCCC1 (stereo not drawn) , report its measured inhibition.
Outgoing: 75
